# condition-context: in ethylene glycol, 318.15 K
experimental-endpoint: solubility (mole fraction)
Kindly provide the number alone.

Look at this molecule and give its reported solubility (mole fraction). Cc1nc(N)nc(N)n1
0.00225

---

# condition-context: in methanol, 283.15 K
experimental-endpoint: solubility (mole fraction)
Kindly provide the number alone.

Look at this compound and give its reported solubility (mole fraction). Cc1nc(N)nc(N)n1
0.000159

---

# condition-context: in ethanol, 303.15 K
experimental-endpoint: solubility (mole fraction)
Kindly provide the number alone.

Look at this compound and give its reported solubility (mole fraction). Cc1nc(N)nc(N)n1
0.000485

---

# condition-context: in methanol, 298.15 K
experimental-endpoint: solubility (mole fraction)
Kindly provide the number alone.

Look at this molecule and give its reported solubility (mole fraction). Cc1nc(N)nc(N)n1
0.000289

---

# condition-context: in water, 288.15 K
experimental-endpoint: solubility (mole fraction)

Look at this molecule and give its reported solubility (mole fraction). Cc1nc(N)nc(N)n1
0.000146

---

# condition-context: in water, 323.15 K
experimental-endpoint: solubility (mole fraction)
Kindly provide the number alone.

Look at this compound and give its reported solubility (mole fraction). Cc1nc(N)nc(N)n1
0.000633

---

# condition-context: in ethylene glycol, 283.15 K
experimental-endpoint: solubility (mole fraction)

Look at this compound and give its reported solubility (mole fraction). Cc1nc(N)nc(N)n1
0.000797

---

# condition-context: in ethanol, 308.15 K
experimental-endpoint: solubility (mole fraction)

Look at this compound and give its reported solubility (mole fraction). Cc1nc(N)nc(N)n1
0.000592

---

# condition-context: in isobutanol, 288.15 K
experimental-endpoint: solubility (mole fraction)

Look at this molecule and give its reported solubility (mole fraction). Cc1nc(N)nc(N)n1
0.000454

---

# condition-context: in acetonitrile, 298.15 K
experimental-endpoint: solubility (mole fraction)
Kindly provide the number alone.

Look at this compound and give its reported solubility (mole fraction). Cc1nc(N)nc(N)n1
0.00018

---

# condition-context: in methanol, 303.15 K
experimental-endpoint: solubility (mole fraction)
Kindly provide the number alone.

Look at this compound and give its reported solubility (mole fraction). Cc1nc(N)nc(N)n1
0.000365

---

# condition-context: in water, 308.15 K
experimental-endpoint: solubility (mole fraction)
Kindly provide the number alone.

Look at this molecule and give its reported solubility (mole fraction). Cc1nc(N)nc(N)n1
0.000362

---

# condition-context: in acetonitrile, 323.15 K
experimental-endpoint: solubility (mole fraction)

Look at this molecule and give its reported solubility (mole fraction). Cc1nc(N)nc(N)n1
0.000523

---

# condition-context: in water, 313.15 K
experimental-endpoint: solubility (mole fraction)
Kindly provide the number alone.

Look at this molecule and give its reported solubility (mole fraction). Cc1nc(N)nc(N)n1
0.000426

---

# condition-context: in ethanol, 313.15 K
experimental-endpoint: solubility (mole fraction)

Look at this molecule and give its reported solubility (mole fraction). Cc1nc(N)nc(N)n1
0.000688

---

# condition-context: in isobutanol, 308.15 K
experimental-endpoint: solubility (mole fraction)
Kindly provide the number alone.

Look at this molecule and give its reported solubility (mole fraction). Cc1nc(N)nc(N)n1
0.000931

---

# condition-context: in isobutanol, 303.15 K
experimental-endpoint: solubility (mole fraction)
Kindly provide the number alone.

Look at this molecule and give its reported solubility (mole fraction). Cc1nc(N)nc(N)n1
0.000792

---

# condition-context: in methanol, 318.15 K
experimental-endpoint: solubility (mole fraction)
Kindly provide the number alone.

Look at this compound and give its reported solubility (mole fraction). Cc1nc(N)nc(N)n1
0.000636

---

# condition-context: in ethyl acetate, 323.15 K
experimental-endpoint: solubility (mole fraction)
Kindly provide the number alone.

Look at this molecule and give its reported solubility (mole fraction). Cc1nc(N)nc(N)n1
0.00229

---

# condition-context: in n-butanol, 318.15 K
experimental-endpoint: solubility (mole fraction)
Kindly provide the number alone.

Look at this compound and give its reported solubility (mole fraction). Cc1nc(N)nc(N)n1
0.0015

---

# condition-context: in n-butanol, 313.15 K
experimental-endpoint: solubility (mole fraction)

Look at this compound and give its reported solubility (mole fraction). Cc1nc(N)nc(N)n1
0.00131

---

# condition-context: in DMF, 308.15 K
experimental-endpoint: solubility (mole fraction)
Kindly provide the number alone.

Look at this compound and give its reported solubility (mole fraction). Cc1nc(N)nc(N)n1
0.00209

---

# condition-context: in methanol, 288.15 K
experimental-endpoint: solubility (mole fraction)

Look at this compound and give its reported solubility (mole fraction). Cc1nc(N)nc(N)n1
0.000192

---

# condition-context: in ethylene glycol, 298.15 K
experimental-endpoint: solubility (mole fraction)
Kindly provide the number alone.

Look at this compound and give its reported solubility (mole fraction). Cc1nc(N)nc(N)n1
0.00121

---

# condition-context: in ethyl acetate, 308.15 K
experimental-endpoint: solubility (mole fraction)
Kindly provide the number alone.

Look at this molecule and give its reported solubility (mole fraction). Cc1nc(N)nc(N)n1
0.00142

---

# condition-context: in DMF, 288.15 K
experimental-endpoint: solubility (mole fraction)
Kindly provide the number alone.

Look at this compound and give its reported solubility (mole fraction). Cc1nc(N)nc(N)n1
0.0012

---

# condition-context: in DMF, 303.15 K
experimental-endpoint: solubility (mole fraction)

Look at this compound and give its reported solubility (mole fraction). Cc1nc(N)nc(N)n1
0.0018

---

# condition-context: in ethylene glycol, 323.15 K
experimental-endpoint: solubility (mole fraction)
Kindly provide the number alone.

Look at this compound and give its reported solubility (mole fraction). Cc1nc(N)nc(N)n1
0.00259

---

# condition-context: in 1,4-dioxane, 298.15 K
experimental-endpoint: solubility (mole fraction)
Kindly provide the number alone.

Look at this compound and give its reported solubility (mole fraction). Cc1nc(N)nc(N)n1
0.000899

---

# condition-context: in ethyl acetate, 313.15 K
experimental-endpoint: solubility (mole fraction)
Kindly provide the number alone.

Look at this compound and give its reported solubility (mole fraction). Cc1nc(N)nc(N)n1
0.00171

---

# condition-context: in ethylene glycol, 288.15 K
experimental-endpoint: solubility (mole fraction)
Kindly provide the number alone.

Look at this molecule and give its reported solubility (mole fraction). Cc1nc(N)nc(N)n1
0.000935

---

# condition-context: in n-butanol, 298.15 K
experimental-endpoint: solubility (mole fraction)
Kindly provide the number alone.

Look at this compound and give its reported solubility (mole fraction). Cc1nc(N)nc(N)n1
0.000764

---

# condition-context: in methanol, 293.15 K
experimental-endpoint: solubility (mole fraction)
Kindly provide the number alone.

Look at this compound and give its reported solubility (mole fraction). Cc1nc(N)nc(N)n1
0.000235

---

# condition-context: in ethyl acetate, 283.15 K
experimental-endpoint: solubility (mole fraction)
Kindly provide the number alone.

Look at this compound and give its reported solubility (mole fraction). Cc1nc(N)nc(N)n1
0.000671

---

# condition-context: in isobutanol, 313.15 K
experimental-endpoint: solubility (mole fraction)
Kindly provide the number alone.

Look at this compound and give its reported solubility (mole fraction). Cc1nc(N)nc(N)n1
0.0011

---

# condition-context: in n-propanol, 298.15 K
experimental-endpoint: solubility (mole fraction)
Kindly provide the number alone.

Look at this compound and give its reported solubility (mole fraction). Cc1nc(N)nc(N)n1
0.00054

---

# condition-context: in acetonitrile, 313.15 K
experimental-endpoint: solubility (mole fraction)

Look at this molecule and give its reported solubility (mole fraction). Cc1nc(N)nc(N)n1
0.000345

---

# condition-context: in n-butanol, 323.15 K
experimental-endpoint: solubility (mole fraction)
Kindly provide the number alone.

Look at this compound and give its reported solubility (mole fraction). Cc1nc(N)nc(N)n1
0.00177

Sourced from BigSolDB 2.1
